// provenance: ChEMBL document CHEMBL4334465

Tested on: Candida albicans
Assay: Antifungal activity against Candida albicans measured after 24 to 72 hrs
Type: functional
Known MIC80 of a selection of molecules
Value expressed in µg/mL; do not type the unit.

| mol | subject of test | unit text | MIC80 |
| --- | --- | --- | --- |
| O=C(N/N=C/c1ccc(Br)cc1O)c1cc(Br)cc(Br)c1O | Candida albicans | µg/mL | 2 |

Now turn to the next molecule.
-- ask Using the record for O=C(N/N=C/c1cc(Cl)cc(Cl)c1O)c1ccc(Br)c(Br)c1 , state its measured MIC80.
-- reply 2

###

Known selectivity ratio of a selection of molecules
Assay: Selectivity index, ratio of LD50 for human A549 cells to MIC80 for Cryptococcus neoformans H99
Type: toxicity
Settings: read-out: Selectivity Index
Just the number, please, no unit after it.

| mol | reported |
| --- | --- |
| O=C(N/N=C/c1cc(Br)cc(Br)c1O)c1ccc(OC(F)(F)F)cc1 | 128 |
| Cc1ccc(O)c(/C=N/NC(=O)c2ccc(Br)cc2Br)c1 | 32 |
| O=C(N/N=C/c1ccc(Br)cc1O)c1cc(Br)ccc1Br | 267 |
| O=C(N/N=C/c1ccc(Br)cc1O)c1ccc(Br)c(Br)c1 | 33.3 |
| O=C(N/N=C/c1cc(Br)ccc1O)c1ccc(C(F)(F)F)cc1F | 32 |

-- ask Using the record for O=C(N/N=C/c1cc(Cl)cc(Cl)c1O)c1cc(Br)cc(Br)c1 , state its measured selectivity ratio.
-- reply 128

-- ask Using the record for O=C(N/N=C/c1cc(Br)cc(Br)c1O)c1ccc(C(F)(F)F)cc1 , state its measured selectivity ratio.
-- reply 33.3

-- ask Using the record for O=C(N/N=C/c1cc(Br)cc(Br)c1O)c1ccc(OC(F)F)cc1 , state its measured selectivity ratio.
-- reply 133

-- ask Using the record for O=C(N/N=C/c1cc(OC(F)(F)F)ccc1O)c1ccc(Br)cc1Br , state its measured selectivity ratio.
-- reply 128

-- ask Using the record for O=C(N/N=C/c1cc(Br)ccc1O)c1ccc(OC(F)(F)F)cc1 , state its measured selectivity ratio.
-- reply 66.6

-- ask Using the record for O=C(N/N=C/c1cc(Br)ccc1O)c1ccc(Br)c(Br)c1 , state its measured selectivity ratio.
-- reply 32

-- ask Using the record for O=C(N/N=C/c1cccc(Cl)c1O)c1cccc(C(F)(F)F)c1 , state its measured selectivity ratio.
-- reply 32

###

Tested on: HepG2
Test: Cytotoxicity against human HepG2 cells after 24 to 48 hrs by MTT assay
Format: functional
Details: read-out: LD50 (the source's name)
Known CC50 of a selection of molecules
Value expressed in µg/mL; do not type the unit.

Here's what some known entries look like.
| mol | subject of test | CC50, µg/mL |
| --- | --- | --- |
| O=C(N/N=C/c1cccc(Cl)c1O)c1cccc(C(F)(F)F)c1 | HepG2 | 32 |
| O=C(N/N=C/c1cc(OC(F)(F)F)ccc1O)c1ccc(Br)cc1Br | HepG2 | 64 |
| Cc1ccc(O)c(/C=N/NC(=O)c2cc(Br)ccc2O)c1 | HepG2 | 16 |
| O=C(N/N=C/c1cc(Br)ccc1O)c1cc(Br)cc(Br)c1 | HepG2 | 16 |
| O=C(N/N=C/c1ccc(Br)cc1O)c1ccc(Br)cc1Br | HepG2 | 128 |
| O=C(N/N=C/c1cc(Br)cc(Br)c1O)c1cccc(Br)c1Br | HepG2 | 16 |
| CN(C)c1ccc(C(=O)N/N=C/c2c(O)ccc3ccccc23)cc1 | HepG2 | 16 |
| O=C(N/N=C/c1ccc(Br)cc1O)c1ccc(Br)cc1 | HepG2 | 32 |
| O=C(N/N=C/c1cccc(Br)c1O)c1cccc(F)c1 | HepG2 | 16 |
| O=C(N/N=C/c1c(O)ccc2ccccc12)c1ccc(Br)cc1Br | HepG2 | 64 |

-- ask Using the record for O=C(N/N=C/c1cc(Br)cc(Br)c1O)c1ccc(OC(F)(F)F)cc1 , state its measured CC50.
-- reply 16

-- ask Using the record for O=C(N/N=C/c1ccc(Br)cc1O)c1ccc(Br)c(Br)c1 , state its measured CC50.
-- reply 8

###

System: Candida albicans
Experiment: Antifungal activity against Candida albicans assessed as FICI in presence of caspofungin
Format: functional
recorded metric: fractional inhibitory concentration index (FICI)
Just the number, please, no unit after it.

Here's what some known entries look like.
| mol | reported |
| --- | --- |
| O=C(N/N=C/c1ccc(Br)cc1O)c1ccc(Br)cc1Br | 0.502 |
| O=C(N/N=C/c1cc(Cl)cc(Cl)c1O)c1ccc(Br)c(Br)c1 | 1 |
| O=C(N/N=C/c1cc(Br)cc(Br)c1O)c1ccc(Br)c(Br)c1 | 0.5 |

Now turn to the next compound.
-- ask Using the record for O=C(N/N=C/c1cc(Br)ccc1O)c1ccc(Br)cc1Br , state its measured fractional inhibitory concentration index (FICI).
-- reply 0.502

###

System: Cryptococcus neoformans
Experiment: Fungicidal activity against Cryptococcus neoformans H99 measured after 72 hrs by time-kill assay
Type: functional, var grubii H99
recorded metric: MFC100 (µg/mL)
Value expressed in µg/mL; do not type the unit.

Here's what some known entries look like.
| mol | unit text | MFC100 |
| --- | --- | --- |
| O=C(N/N=C/c1cc(Br)cc(Br)c1O)c1ccc(OC(F)(F)F)cc1 | µg/mL | 4 |
| Cc1ccc(O)c(/C=N/NC(=O)c2ccc(Br)c(Br)c2)c1 | µg/mL | 0.5 |

-- ask Using the record for O=C(N/N=C/c1cc(Br)ccc1O)c1ccccc1C(F)(F)F , state its measured MFC100.
-- reply 1

-- ask Using the record for O=C(N/N=C/c1ccc(Br)cc1O)c1ccc(Br)cc1Br , state its measured MFC100.
-- reply 0.06

-- ask Using the record for O=C(N/N=C/c1cc(Br)ccc1O)c1ccc(Br)cc1Br , state its measured MFC100.
-- reply 0.06

-- ask Using the record for N#Cc1ccc(C(=O)N/N=C/c2cc(Br)cc(Br)c2O)cc1 , state its measured MFC100.
-- reply 1

###

Known MIC80 of a selection of compounds
Tested on: Candida albicans
Experiment: Antifungal activity against Candida albicans measured after 24 to 72 hrs
Format: functional

Here's what some known entries look like.
| mol | MIC80 |
| --- | --- |
| O=C(N/N=C/c1ccc(Br)cc1O)c1ccc(Br)cc1Br | > 16 µg/mL |
| O=C(N/N=C/c1cc(Br)ccc1O)c1ccc(Br)cc1Br | > 16 µg/mL |

-- ask Using the record for O=C(N/N=C/c1cc(Br)cc(Br)c1O)c1ccc(Br)c(Br)c1 , state its measured MIC80.
-- reply > 16 µg/mL
